B1: TPR t1 (parent)
chain: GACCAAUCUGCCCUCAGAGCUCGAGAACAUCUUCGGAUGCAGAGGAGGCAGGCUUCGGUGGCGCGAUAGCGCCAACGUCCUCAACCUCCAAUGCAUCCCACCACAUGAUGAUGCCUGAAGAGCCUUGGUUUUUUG

- Variants of: B1
- assay.comment: polymerase ribozyme fitness, log enrichment relative to wild type (log ratio); higher = more active; in vitro selection for triplet polymerase activity
Quick rule: polymerase ribozyme fitness (log ratio) of at least -1 means label 1, below that means label 0.

Completed entries (count: 2):
// query Is it the case that U59C C102U C114G has polymerase ribozyme fitness (log ratio) reaching or exceeding -1?
// result label 0

// query Is it the case that C73U C104U C115A has polymerase ribozyme fitness (log ratio) reaching or exceeding -1?
// result label 1

More entries:
// query Is it the case that C73A C82U has polymerase ribozyme fitness (log ratio) reaching or exceeding -1?
// result label 1

// query Is it the case that U116C U133A has polymerase ribozyme fitness (log ratio) reaching or exceeding -1?
// result label 1

// query Is it the case that C114A has polymerase ribozyme fitness (log ratio) reaching or exceeding -1?
// result label 0

// query Is it the case that C102A G117C has polymerase ribozyme fitness (log ratio) reaching or exceeding -1?
// result label 0

// query Is it the case that G52A A66G has polymerase ribozyme fitness (log ratio) reaching or exceeding -1?
// result label 0

// query Is it the case that A18C G52U A74U A95U A121G has polymerase ribozyme fitness (log ratio) reaching or exceeding -1?
// result label 0

// query Is it the case that C49U G69A has polymerase ribozyme fitness (log ratio) reaching or exceeding -1?
// result label 0
